Attribution: patent US20110172217A1

Target Under Test: PI-3 kinase γ (Homo sapiens)
Sequence (P48736 whole entry): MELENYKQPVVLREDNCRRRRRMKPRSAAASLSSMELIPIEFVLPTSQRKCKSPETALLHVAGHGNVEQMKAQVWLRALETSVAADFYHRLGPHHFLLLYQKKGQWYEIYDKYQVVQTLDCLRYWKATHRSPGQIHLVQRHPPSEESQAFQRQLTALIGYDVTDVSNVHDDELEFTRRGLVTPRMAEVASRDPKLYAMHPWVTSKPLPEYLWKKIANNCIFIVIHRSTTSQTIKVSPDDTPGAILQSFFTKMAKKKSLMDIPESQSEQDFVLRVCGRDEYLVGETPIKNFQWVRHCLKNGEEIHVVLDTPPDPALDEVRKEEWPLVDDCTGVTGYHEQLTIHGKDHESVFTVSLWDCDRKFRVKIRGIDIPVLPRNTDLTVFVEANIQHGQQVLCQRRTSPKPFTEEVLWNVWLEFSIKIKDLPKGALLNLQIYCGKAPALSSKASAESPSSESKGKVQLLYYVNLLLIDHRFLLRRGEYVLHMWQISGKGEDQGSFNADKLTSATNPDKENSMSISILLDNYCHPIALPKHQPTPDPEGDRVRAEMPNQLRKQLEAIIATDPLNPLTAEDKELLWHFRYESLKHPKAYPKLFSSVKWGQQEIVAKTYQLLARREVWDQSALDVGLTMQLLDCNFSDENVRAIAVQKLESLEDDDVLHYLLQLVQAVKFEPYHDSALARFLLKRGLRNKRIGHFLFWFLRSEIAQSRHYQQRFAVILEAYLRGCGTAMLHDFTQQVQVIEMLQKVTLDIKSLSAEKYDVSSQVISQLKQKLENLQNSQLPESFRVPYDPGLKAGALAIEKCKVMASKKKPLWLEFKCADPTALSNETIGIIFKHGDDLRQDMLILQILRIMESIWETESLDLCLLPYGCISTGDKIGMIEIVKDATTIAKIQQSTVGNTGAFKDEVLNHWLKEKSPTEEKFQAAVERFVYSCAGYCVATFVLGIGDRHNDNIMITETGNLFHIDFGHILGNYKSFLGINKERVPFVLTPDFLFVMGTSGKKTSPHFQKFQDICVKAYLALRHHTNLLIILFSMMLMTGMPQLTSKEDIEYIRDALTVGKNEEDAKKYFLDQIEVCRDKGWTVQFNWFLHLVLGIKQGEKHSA
Test Protocol: PI3Kγ inhibitory activity, PI3-kinase HTRF assay (inhibition ratio)
Type: biochemical
Details: 0.5 h, compound at 50 μmol/L
Assay Readout: inhibition at 50 µM (%)

- Compound: "O=C(O)c1ccccc1Nc1ccc2c(n1)N(C(=O)Nc1ccccc1)CCO2"
  Target Under Test: "PI-3 kinase γ (Homo sapiens)"
  Measure Unit: "%"
  inhibition at 50 µM: 81
- Compound: "COc1ccc(-c2ccc3c(n2)N(C(=O)Nc2ccccc2)CCO3)cc1"
  Target Under Test: "PI-3 kinase γ (Homo sapiens)"
  Measure Unit: "%"
  inhibition at 50 µM: 73
- Compound: "C#Cc1cccc(Nc2cnc3c(c2)OCCN3C(=O)Nc2ccccc2)c1"
  Target Under Test: "PI-3 kinase γ (Homo sapiens)"
  Measure Unit: "%"
  inhibition at 50 µM: 78
- Compound: "Cc1n[nH]c(C)c1-c1ccc2c(n1)N(C(=O)Nc1ccccc1)CCO2"
  Target Under Test: "PI-3 kinase γ (Homo sapiens)"
  Measure Unit: "%"
  inhibition at 50 µM: 83
- Compound: "O=C(Nc1ccccc1)N1CCOc2cc(Nc3ccc(CN4CCS(=O)(=O)CC4)cc3)cnc21"
  Target Under Test: "PI-3 kinase γ (Homo sapiens)"
  Measure Unit: "%"
  inhibition at 50 µM: 82
- Compound: "CN(c1ccc(C(=O)O)cc1)c1ccc2c(n1)N(C(=O)Nc1ccccc1)CCO2"
  Target Under Test: "PI-3 kinase γ (Homo sapiens)"
  Measure Unit: "%"
  inhibition at 50 µM: 82
- Compound: "O=C(Nc1ccccc1)N1CCOc2ccc(Cc3ccccc3)nc21"
  Target Under Test: "PI-3 kinase γ (Homo sapiens)"
  Measure Unit: "%"
  inhibition at 50 µM: 75
- Compound: "Nc1ccc2c(n1)N(C(=O)Nc1ccccc1)CCO2"
  Target Under Test: "PI-3 kinase γ (Homo sapiens)"
  Measure Unit: "%"
  inhibition at 50 µM: 88
- Compound: "O=C(O)c1ccc(Nc2ccc3c(n2)N(C(=O)Nc2ccccc2)CCO3)nc1"
  Target Under Test: "PI-3 kinase γ (Homo sapiens)"
  Measure Unit: "%"
  inhibition at 50 µM: 86
- Compound: "CC(NC(=O)c1ccc2c(n1)N(C(=O)Nc1ccccc1)CCO2)C(=O)O (centres unmarked)"
  Target Under Test: "PI-3 kinase γ (Homo sapiens)"
  Measure Unit: "%"
  inhibition at 50 µM: 76
- Compound: "Nc1cnc2c(c1)OCCN2C(=O)Nc1ccccc1"
  Target Under Test: "PI-3 kinase γ (Homo sapiens)"
  Measure Unit: "%"
  inhibition at 50 µM: 94
- Compound: "CC1SC(N2CCOc3cccnc32)=NC1=O (centres unmarked)"
  Target Under Test: "PI-3 kinase γ (Homo sapiens)"
  Measure Unit: "%"
  inhibition at 50 µM: 87
- Compound: "CC(C)CCc1ccc2c(n1)N(C(=O)Nc1ccccc1)CCO2"
  Target Under Test: "PI-3 kinase γ (Homo sapiens)"
  Measure Unit: "%"
  inhibition at 50 µM: 91
- Compound: "NC(=O)c1ccc(-c2ccc3c(n2)N(C(=O)Nc2ccccc2)CCO3)cc1"
  Target Under Test: "PI-3 kinase γ (Homo sapiens)"
  Measure Unit: "%"
  inhibition at 50 µM: 73
- Compound: "O=C(Nc1ccccc1)N1CCOc2cc(-c3cc[nH]n3)cnc21"
  Target Under Test: "PI-3 kinase γ (Homo sapiens)"
  Measure Unit: "%"
  inhibition at 50 µM: 71
- Compound: "CC(C)(C)OC(=O)n1c(-c2cnc3c(c2)OCCN3C(=O)Nc2ccccc2)cc2ccccc21"
  Target Under Test: "PI-3 kinase γ (Homo sapiens)"
  Measure Unit: "%"
  inhibition at 50 µM: 85
- Compound: "O=C(Nc1ccccc1)N1CCOc2cc(-c3ccnn3C3CCCCO3)cnc21 (centres unmarked)"
  Target Under Test: "PI-3 kinase γ (Homo sapiens)"
  Measure Unit: "%"
  inhibition at 50 µM: 91
- Compound: "CC(C)(C)OC(=O)c1cccc(Nc2ccc3c(n2)N(C(=O)Nc2ccccc2)CCO3)c1"
  Target Under Test: "PI-3 kinase γ (Homo sapiens)"
  Measure Unit: "%"
  inhibition at 50 µM: 78
